target: Phosphatidylinositol 4,5-bisphosphate 3-kinase catalytic subunit gamma isoform/Phosphoinositide 3-kinase regulatory subunit 5 (Homo sapiens, UniProt P48736); assay: PI3K Inhibition Assay; conditions: pH 7.5; 22 °C
Sequence (P48736 whole entry, canonical isoform): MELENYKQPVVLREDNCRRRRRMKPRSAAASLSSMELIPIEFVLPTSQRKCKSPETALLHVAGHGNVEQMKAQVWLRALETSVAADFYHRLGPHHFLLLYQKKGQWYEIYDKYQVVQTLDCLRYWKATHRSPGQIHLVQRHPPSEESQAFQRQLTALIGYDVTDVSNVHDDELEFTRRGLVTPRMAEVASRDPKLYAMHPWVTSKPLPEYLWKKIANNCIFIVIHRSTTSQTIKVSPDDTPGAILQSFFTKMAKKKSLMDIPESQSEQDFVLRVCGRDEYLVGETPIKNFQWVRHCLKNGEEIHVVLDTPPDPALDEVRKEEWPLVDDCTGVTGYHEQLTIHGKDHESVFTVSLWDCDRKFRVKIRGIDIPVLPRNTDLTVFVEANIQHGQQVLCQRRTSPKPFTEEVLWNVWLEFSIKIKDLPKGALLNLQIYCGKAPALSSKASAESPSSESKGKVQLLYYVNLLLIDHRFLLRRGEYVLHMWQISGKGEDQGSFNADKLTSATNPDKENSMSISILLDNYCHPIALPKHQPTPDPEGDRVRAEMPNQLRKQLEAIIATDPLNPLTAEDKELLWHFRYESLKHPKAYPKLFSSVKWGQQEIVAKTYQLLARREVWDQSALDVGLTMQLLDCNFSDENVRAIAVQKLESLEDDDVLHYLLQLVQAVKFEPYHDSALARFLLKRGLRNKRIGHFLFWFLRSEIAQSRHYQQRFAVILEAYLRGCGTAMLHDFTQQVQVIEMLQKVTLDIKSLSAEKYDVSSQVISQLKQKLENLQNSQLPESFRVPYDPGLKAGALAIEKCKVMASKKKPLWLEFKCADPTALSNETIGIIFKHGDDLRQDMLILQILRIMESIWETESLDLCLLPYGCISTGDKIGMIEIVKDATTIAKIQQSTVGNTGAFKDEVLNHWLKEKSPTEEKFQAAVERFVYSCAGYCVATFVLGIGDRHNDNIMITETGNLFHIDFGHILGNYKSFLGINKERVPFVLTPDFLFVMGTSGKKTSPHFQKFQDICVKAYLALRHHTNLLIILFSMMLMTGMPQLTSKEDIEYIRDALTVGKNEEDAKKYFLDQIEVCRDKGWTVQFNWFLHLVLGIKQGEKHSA
Sequence (Q8WYR1 whole entry, further chain, canonical isoform): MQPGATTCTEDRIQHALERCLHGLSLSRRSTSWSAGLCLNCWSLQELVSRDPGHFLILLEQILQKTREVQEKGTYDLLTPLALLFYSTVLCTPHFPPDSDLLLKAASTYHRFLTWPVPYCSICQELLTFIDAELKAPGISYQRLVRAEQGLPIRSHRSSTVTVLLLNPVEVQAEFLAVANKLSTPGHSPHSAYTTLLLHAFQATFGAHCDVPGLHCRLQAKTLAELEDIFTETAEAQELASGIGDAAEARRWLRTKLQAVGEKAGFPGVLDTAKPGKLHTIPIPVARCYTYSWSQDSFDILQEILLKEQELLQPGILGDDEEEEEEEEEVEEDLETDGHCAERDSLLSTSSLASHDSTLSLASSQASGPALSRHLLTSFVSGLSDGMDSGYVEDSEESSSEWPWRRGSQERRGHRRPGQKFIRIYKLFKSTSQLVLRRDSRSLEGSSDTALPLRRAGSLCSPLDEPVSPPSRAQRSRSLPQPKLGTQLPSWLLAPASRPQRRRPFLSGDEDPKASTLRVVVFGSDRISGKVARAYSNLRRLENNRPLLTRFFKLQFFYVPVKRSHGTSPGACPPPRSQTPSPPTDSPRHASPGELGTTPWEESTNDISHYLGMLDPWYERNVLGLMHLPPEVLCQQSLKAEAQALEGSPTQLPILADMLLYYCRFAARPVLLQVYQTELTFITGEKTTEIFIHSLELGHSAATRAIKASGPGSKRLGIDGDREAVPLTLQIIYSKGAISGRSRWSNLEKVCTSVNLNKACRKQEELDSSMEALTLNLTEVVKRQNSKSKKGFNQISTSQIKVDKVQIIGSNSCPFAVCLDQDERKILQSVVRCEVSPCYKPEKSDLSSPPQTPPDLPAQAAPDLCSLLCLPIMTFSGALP

[
  {
    "Molecule": "COC[C@H]1OC(=O)C(=CN(C)CCCN(C)C)C2C(=O)C(=O)C3=C([C@H](OC(C)=O)C[C@@]4(C)C3CC[C@@H]4O)[C@]21C (stereo partly specified)",
    "IC50 (nM)": 8
  }
]

---

target: Phosphatidylinositol 3-kinase regulatory subunit alpha/4,5-bisphosphate 3-kinase catalytic subunit alpha isoform (Homo sapiens, UniProt P42336); assay: PI3K Inhibition Assay
Sequence (P27986 whole entry, canonical isoform): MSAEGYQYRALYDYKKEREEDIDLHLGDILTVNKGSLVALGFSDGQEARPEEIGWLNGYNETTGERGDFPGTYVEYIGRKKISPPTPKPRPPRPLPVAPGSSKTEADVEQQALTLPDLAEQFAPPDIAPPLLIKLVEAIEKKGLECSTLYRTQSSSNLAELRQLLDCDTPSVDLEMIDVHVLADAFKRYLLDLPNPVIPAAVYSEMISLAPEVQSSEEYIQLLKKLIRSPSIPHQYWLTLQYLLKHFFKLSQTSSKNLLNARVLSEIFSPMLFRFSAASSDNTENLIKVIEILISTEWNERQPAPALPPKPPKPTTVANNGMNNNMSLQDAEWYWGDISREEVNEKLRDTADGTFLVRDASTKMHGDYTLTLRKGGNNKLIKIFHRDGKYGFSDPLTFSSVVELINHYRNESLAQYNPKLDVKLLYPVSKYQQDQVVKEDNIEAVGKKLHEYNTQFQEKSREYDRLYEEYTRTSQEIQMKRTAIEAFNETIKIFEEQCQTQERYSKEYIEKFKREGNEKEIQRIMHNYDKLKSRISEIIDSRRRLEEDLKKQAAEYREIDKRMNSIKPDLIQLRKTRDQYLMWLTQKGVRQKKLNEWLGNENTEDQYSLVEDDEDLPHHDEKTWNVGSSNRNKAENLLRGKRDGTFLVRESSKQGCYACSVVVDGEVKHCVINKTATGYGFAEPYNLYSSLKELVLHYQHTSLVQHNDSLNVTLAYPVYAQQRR
Sequence (P42336 whole entry, canonical isoform): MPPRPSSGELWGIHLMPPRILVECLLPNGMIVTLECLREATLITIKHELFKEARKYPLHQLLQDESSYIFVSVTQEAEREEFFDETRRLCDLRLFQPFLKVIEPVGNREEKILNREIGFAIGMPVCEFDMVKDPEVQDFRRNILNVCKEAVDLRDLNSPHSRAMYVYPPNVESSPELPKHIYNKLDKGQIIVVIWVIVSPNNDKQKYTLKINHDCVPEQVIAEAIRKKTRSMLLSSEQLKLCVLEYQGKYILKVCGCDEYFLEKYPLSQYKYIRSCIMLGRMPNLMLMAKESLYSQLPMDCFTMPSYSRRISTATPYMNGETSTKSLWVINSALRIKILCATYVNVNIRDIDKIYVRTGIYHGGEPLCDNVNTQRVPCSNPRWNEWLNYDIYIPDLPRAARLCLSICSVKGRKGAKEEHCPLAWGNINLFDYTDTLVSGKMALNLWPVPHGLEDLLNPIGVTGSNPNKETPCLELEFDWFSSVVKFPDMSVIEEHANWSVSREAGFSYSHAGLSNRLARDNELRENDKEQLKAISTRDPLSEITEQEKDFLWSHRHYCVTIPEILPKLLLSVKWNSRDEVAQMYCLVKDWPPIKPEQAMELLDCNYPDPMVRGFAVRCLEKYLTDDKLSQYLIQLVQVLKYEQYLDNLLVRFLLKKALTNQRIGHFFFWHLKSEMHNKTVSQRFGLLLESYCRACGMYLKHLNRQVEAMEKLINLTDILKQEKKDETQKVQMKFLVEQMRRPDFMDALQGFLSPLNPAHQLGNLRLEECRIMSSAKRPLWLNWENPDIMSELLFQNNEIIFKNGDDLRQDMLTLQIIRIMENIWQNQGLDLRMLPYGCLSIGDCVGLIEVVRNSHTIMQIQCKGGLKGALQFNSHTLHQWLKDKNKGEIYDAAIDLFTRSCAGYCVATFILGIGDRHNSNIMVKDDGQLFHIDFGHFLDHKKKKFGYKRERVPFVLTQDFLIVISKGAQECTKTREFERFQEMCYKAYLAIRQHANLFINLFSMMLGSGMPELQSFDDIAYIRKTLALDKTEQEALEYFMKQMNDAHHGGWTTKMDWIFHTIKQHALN
pIC50: −log10 of the molar value.
Record Criterion met whenever pIC50 is at 7 or higher; record Criterion not met when lower.

[
  {
    "Compound": "COC[C@H]1OC(=O)C(=CN(CCCN(C)C)CCCN(C)C)C2C(=O)C(=O)C3=C([C@H](OC(C)=O)C[C@@]4(C)C3CC[C@@H]4O)[C@]21C (stereo partly specified)",
    "Class Label": "Criterion met"
  },
  {
    "Compound": "COC[C@H]1OC(=O)C(=CN(C)CCCN2CCOCC2)C2C(=O)C(=O)C3=C([C@H](OC(C)=O)C[C@@]4(C)C3CC[C@@H]4O)[C@]21C (stereo partly specified)",
    "Class Label": "Criterion met"
  },
  {
    "Compound": "COC[C@H]1OC(=O)C(=CN2CCN(c3ccccc3)CC2)C2C(=O)C(=O)C3=C([C@H](OC(C)=O)C[C@@]4(C)C3CC[C@@H]4O)[C@]21C (stereo partly specified)",
    "Class Label": "Criterion met"
  },
  {
    "Compound": "COC[C@H]1OC(=O)C(=CN2CCN(CCCN3CCOCC3)CC2)C2C(=O)C(=O)C3=C([C@H](OC(C)=O)C[C@@]4(C)C3CC[C@@H]4O)[C@]21C (stereo partly specified)",
    "Class Label": "Criterion met"
  },
  {
    "Compound": "COC[C@H]1OC(=O)C(=CN(CCO)CCO)C2C(=O)C(=O)C3=C([C@H](OC(C)=O)C[C@@]4(C)C3CC[C@@H]4O)[C@]21C (stereo partly specified)",
    "Class Label": "Criterion not met"
  },
  {
    "Compound": "COC[C@H]1OC(=O)C(=CN2CCN(CCCN(C)C)CC2)C2C(=O)C(=O)C3=C([C@H](OC(C)=O)C[C@@]4(C)C3CC[C@@H]4O)[C@]21C (stereo partly specified)",
    "Class Label": "Criterion met"
  }
]

---

molecular target: Phosphatidylinositol 3-kinase regulatory subunit alpha/4,5-bisphosphate 3-kinase catalytic subunit alpha isoform (Homo sapiens, UniProt P42336); experiment: PI3K Inhibition Assay
Mark each entry true (1) if its IC50 sits below 40 nM, and false (0) for all others.

[
  {
    "Compound": "COC[C@H]1OC(=O)C(=CN(C)CCN(C)C)C2C(=O)C(=O)C3=C([C@H](OC(C)=O)C[C@@]4(C)C3CC[C@@H]4O)[C@]21C (stereo partly specified)",
    "Class Label": "true (1)"
  },
  {
    "Compound": "COC[C@H]1OC(=O)C(=CN2CCN(C3CCCCC3)CC2)C2C(=O)C(=O)C3=C([C@H](OC(C)=O)C[C@@]4(C)C3CC[C@@H]4O)[C@]21C (stereo partly specified)",
    "Class Label": "false (0)"
  },
  {
    "Compound": "COC[C@H]1OC(=O)C(=CN2CCC(C(=O)O)CC2)C2C(=O)C(=O)C3=C([C@H](OC(C)=O)C[C@@]4(C)C3CC[C@@H]4O)[C@]21C (stereo partly specified)",
    "Class Label": "true (1)"
  },
  {
    "Compound": "CCN(C=C1C(=O)O[C@H](COC)[C@]2(C)C3=C(C(=O)C(=O)C12)C1CC[C@H](O)[C@@]1(C)C[C@H]3OC(C)=O)CCN(CC)CC (stereo partly specified)",
    "Class Label": "true (1)"
  },
  {
    "Compound": "COC[C@H]1OC(=O)C(=CN2CCN(C3CCN(C)CC3)CC2)C2C(=O)C(=O)C3=C([C@H](OC(C)=O)C[C@@]4(C)C3CC[C@@H]4O)[C@]21C (stereo partly specified)",
    "Class Label": "false (0)"
  },
  {
    "Compound": "COC[C@H]1OC(=O)C(=CN2CCC(N3CCCCC3)CC2)C2C(=O)C(=O)C3=C([C@H](OC(C)=O)C[C@@]4(C)C3CC[C@@H]4O)[C@]21C (stereo partly specified)",
    "Class Label": "false (0)"
  }
]
